The measured values listed here are drawn from patent US20230181599A1.

# protocol.description: PK of oral formulations of PR2005 in female dogs, relative bioavailability vs intramuscular injection (MAKENA)
# Assay type: in vivo
# measurement.conditions: female, dog, plasma, im, 250 mg intramuscular injection, geometric mean
endpoint.name: half-life (h)
Give bare numbers, in h.

What does the record list as half-life for `CCCCCC(=O)O[C@]1(C(C)=O)CC[C@H]2[C@@H]3CCC4=CC(=O)CC[C@]4(C)[C@H]3CC[C@@]21C` ?
48.4

* * *

# protocol.description: PK of oral formulations of PR2005 in female dogs, relative bioavailability vs intramuscular injection (MAKENA)
# Type: in vivo
# measurement.conditions: female, dog, plasma, im, 250 mg intramuscular injection, median
endpoint.name: Tmax (h)
One number for each entry, in h.

What does the record list as Tmax for `CCCCCC(=O)O[C@]1(C(C)=O)CC[C@H]2[C@@H]3CCC4=CC(=O)CC[C@]4(C)[C@H]3CC[C@@]21C` ?
48

* * *

# protocol.description: Seven-day inhalation toxicity study in rats (GLP)
# Assay type: in vivo, Sprague-Dawley rats
# measurement.conditions: both sexes, Sprague-Dawley, rat, in vivo, inhaled or intranasal; inhalation, 7 consecutive days, rats; preliminary results; read-out: no observed adverse effect level (NOAEL)
endpoint.name: NOAEL at 7 days (mg/kg/day)
One number for each entry, in mg/kg/day.

What does the record list as NOAEL at 7 days for `CCCCCC(=O)O[C@]1(C(C)=O)CC[C@H]2[C@@H]3CCC4=CC(=O)CC[C@]4(C)[C@H]3CC[C@@]21C` ?
8
